# Lookup of reported IC50 keyed by entry
- assay target: human HDAC1 (Homo sapiens)
- Construct: made in house; host or cells: HeLa (ATCC CCL-2), mammalian cells
- assay: Homo sapiens HDAC1 inhibition assay (Fluor-de-Lys, enzymatic)
- Type: biochemical
- measurement parameters: human HDAC enzymatic assay; read-out: hHDAC IC50
- Method: Biology Homo sapiens HDAC1 Inhibition Assay Overview: The aim of the assay is to evaluate the inhibition of the deacetylase activity of human HDAC1. To such goal an acetylated substrate is added to the enzyme mix; the resulting enzymatic product is converted to a fluorescent molecule by the addition the enzyme trypsine (developer solution). Fluorescence intensity is inversely proportional to the rate of inhibition of the enzyme (as indicated in the material section below). […]

Here's what some known entries look like.
>>> print(df.to_string())
                                   molecule  test_readout     result
0  CNC(=O)CCCCC[C@H](NC(=O)Cc1ccccc1)c1ncc(-c2ccc3ccccc3c2)[nH]1          IC50     < 1 µM
1  CNC(=O)CCCCC[C@H](NC(=O)C1CC(=O)Nc2ccccc21)c1ncc(-c2ccc3ccccc3c2)[nH]1 (stereo partly shown)          IC50  1 to 5 µM
2  CNC(=O)CCCCC[C@H](NC(=O)c1nc2ncccn2n1)c1ncc(-c2ccc3ccccc3c2)[nH]1          IC50  1 to 5 µM

*Q* I have this molecule here, CNC(=O)CCCCC[C@H](NC(=O)C1(C)CCOCC1)c1ncc(-c2ccc3ccccc3c2)[nH]1 , and I need its recorded IC50.
*A* 1 to 5 µM

*Q* I have this molecule here, CNC(=O)CCCCC[C@H](NC(=O)c1cncs1)c1ncc(-c2ccc3cc(OC)ncc3c2)[nH]1 , and I need its recorded IC50.
*A* < 1 µM

*Q* I have this molecule here, CNC(=O)CCCCC[C@H](NC(=O)c1cncs1)c1ncc(-c2ccc3[nH]nnc3c2)[nH]1 , and I need its recorded IC50.
*A* > 5 µM

*Q* I have this molecule here, CNC(=O)CCCCC[C@H](NC(=O)c1cnc(CN2CCCC2)s1)c1ncc(-c2ccc(-c3ccn(C)n3)cc2)[nH]1 , and I need its recorded IC50.
*A* 1 to 5 µM

* * *

Consider the following IC50 values measured on human HDAC1 (Homo sapiens).

>>> df
                           structure_smiles  test_readout     result
0  CNC(=O)CCCCC[C@H](NC(=O)CCc1c(C)nc2ncnn2c1C)c1ncc(-c2ccc3ccncc3c2)[nH]1          IC50     < 1 µM
1  CNC(=O)CCCCC[C@H](NC(=O)c1cncs1)c1ncc(-c2cc3ccccc3nc2Cl)[nH]1          IC50  1 to 5 µM
2  CNC(=O)CCCCC[C@H](NC(=O)c1cncs1)c1ncc(-c2ccc(Cl)cc2OC)[nH]1          IC50  1 to 5 µM

*Q* I have this compound here, CNC(=O)CCCCC[C@H](NC(=O)C1CN(C)C1)c1ncc(-c2cc3ccccc3[nH]c2=O)[nH]1 , and I need its recorded IC50.
*A* 1 to 5 µM

* * *

- assay target: human HDAC1 (Homo sapiens, UniProt Q13547)
- Sequence (Q13547 whole entry): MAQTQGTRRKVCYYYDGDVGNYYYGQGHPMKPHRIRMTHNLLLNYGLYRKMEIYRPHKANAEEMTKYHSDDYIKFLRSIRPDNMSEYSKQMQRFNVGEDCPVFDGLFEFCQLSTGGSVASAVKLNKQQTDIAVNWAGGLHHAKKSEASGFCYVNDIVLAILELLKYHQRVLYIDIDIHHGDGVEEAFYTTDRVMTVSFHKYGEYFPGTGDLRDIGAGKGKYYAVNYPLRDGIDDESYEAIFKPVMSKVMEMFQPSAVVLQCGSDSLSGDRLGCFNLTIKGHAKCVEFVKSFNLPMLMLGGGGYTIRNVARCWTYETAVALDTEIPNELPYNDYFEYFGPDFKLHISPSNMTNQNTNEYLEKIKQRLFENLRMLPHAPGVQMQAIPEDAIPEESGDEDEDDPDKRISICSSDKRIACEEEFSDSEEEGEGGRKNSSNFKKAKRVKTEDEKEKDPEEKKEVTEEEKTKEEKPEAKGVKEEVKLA
pIC50: −log10 of the molar value.
test readout: pIC50

Here's what some known entries look like.
>>> df
                                   molecule  test_readout        result
0  CNC(=O)CCCCC[C@H](NC(=O)C12CCN(CC1)CC2)c1ncc(-c2ccc3ncccc3c2)[nH]1         pIC50        > 6.00
1  CNC(=O)CCCCC[C@H](NC(=O)c1ccc(N2CC(=O)NC2=O)cc1)c1ncc(-c2ccc(-n3cccn3)cc2)[nH]1         pIC50        < 5.30
2  CNC(=O)CCCCC[C@H](NC(=O)c1cncs1)c1ncc(-c2ccc(-n3cccn3)cc2)[nH]1         pIC50  5.30 to 6.00

*Q* Item CNC(=O)CCCCC[C@H](NC(=O)c1cncs1)c1ncc(-c2ccc(-c3ccn[nH]3)cc2)[nH]1 with human HDAC1 (Homo sapiens, UniProt Q13547) - pIC50?
*A* 5.30 to 6.00

*Q* Item CNC(=O)CCCCC[C@H](NC(=O)C1CC1c1ccncc1)c1ncc(-c2ccc3ccncc3c2)[nH]1 (stereo partly drawn) with human HDAC1 (Homo sapiens, UniProt Q13547) - pIC50?
*A* 5.30 to 6.00

* * *

pIC50: −log10 of the molar value.
Consider the following pIC50 values measured on human HDAC1 (Homo sapiens).

>>> df
                           structure_smiles  result
0  CNC(=O)CCCCC[C@H](NC(=O)c1cncs1)c1ncc(-c2ccc(-c3ccnn3C)cc2)[nH]1  < 5.30

*Q* Item CNC(=O)CCCCC[C@H](NC(=O)Cn1cncn1)c1ncc(-c2ccc(-n3cccn3)cc2)[nH]1 with human HDAC1 (Homo sapiens) - pIC50?
*A* < 5.30

*Q* Item CNC(=O)CCCCC[C@H](NC(=O)c1cccc(-n2nc(C)cc2C)c1)c1ncc(-c2ccc3ccccc3c2)[nH]1 with human HDAC1 (Homo sapiens) - pIC50?
*A* 5.30 to 6.00

*Q* Item CNC(=O)CCCCC[C@H](NC(=O)c1cncs1)c1ncc(-c2ccc(Cl)c(Cl)c2)[nH]1 with human HDAC1 (Homo sapiens) - pIC50?
*A* < 5.30

*Q* Item CNC(=O)CCCCC[C@H](NC(=O)Cc1ccccn1)c1ncc(-c2cc3ccccc3nc2OC)[nH]1 with human HDAC1 (Homo sapiens) - pIC50?
*A* 5.30 to 6.00

*Q* Item CNC(=O)CCCCC[C@H](NC(=O)Cn1cncn1)c1ncc(-c2ccc3ccncc3c2)[nH]1 with human HDAC1 (Homo sapiens) - pIC50?
*A* 5.30 to 6.00

*Q* Item CNC(=O)CCCCC[C@H](NC(=O)c1cncs1)c1ncc(-c2ccc(-c3cncs3)cc2)[nH]1 with human HDAC1 (Homo sapiens) - pIC50?
*A* 5.30 to 6.00

Cited source: patent US9365541B2
